Source of measurements: paper PMC12667295

Assay: LLC-PK1 MOCK/MDR1 monolayer model, results stated for both cell lines jointly
Conditions: pig, pH 7.4, Recovery, with 1 µM Bafilomycin A1, bidirectional transport
Method: Monitoring of TEER value and LY permeability. After the LLC-PK1 MOCK/MDR1 cells attach to the Transwell insert, TEER (Transepithelial Electrical Resistance) values were continuously recorded using a cell resistance meter (Beijing JINGONGHONGTAI Technology Co., Ltd). These TEER values represent the mean from six individual inserts (n = 6) measured per group. The TEER measurement and transport experiment were conducted at 37 °C, using a heating plate to maintain the required temperature. […]
Measure name: recovery at 2 µM

Identify measured recovery at 2 µM corresponding to "COc1ccc2cc1Oc1ccc(cc1)C[C@H]1c3cc(c(OC)cc3CCN1C)Oc1c(OC)c(OC)cc3c1[C@H](C2)N(C)CC3"
80 to 120%

###

test: LLC-PK1 MOCK/MDR1 monolayer model, results stated for both cell lines jointly; conditions: pig, pH 7.4, Recovery, bidirectional transport, uncorrected
Measure name: recovery at 2 µM

Identify measured recovery at 2 µM corresponding to "COc1ccc2cc1Oc1ccc(cc1)C[C@H]1c3cc(c(OC)cc3CCN1C)Oc1c(OC)c(OC)cc3c1[C@H](C2)N(C)CC3"
< 80%

###

test: in vitro; settings: pig, LLC-PK1 MOCK cell monolayer (Transwell), pH 7.4
Attribute: recovery at 2 h, 2 µM
Unit % implied. Number only.

Before answering, review these 3 worked examples.
Compound | Meas value
COCCOC(=O)C1=C(C)NC(C)=C(C(=O)OC(C)C)C1c1cccc([N+](=O)[O-])c1 (stereo not drawn) [Nimodipine] | 109
C[C@H]1O[C@@H](O[C@H]2[C@@H](O)C[C@H](O[C@H]3[C@@H](O)C[C@H](O[C@H]4CC[C@@]5(C)[C@H](CC[C@@H]6[C@@H]5C[C@@H](O)[C@]5(C)[C@@H](C7=CC(=O)OC7)CC[C@]65O)C4)O[C@@H]3C)O[C@@H]2C)C[C@H](O)[C@@H]1O [Digoxin] | 95
Fc1ccc([C@@H]2CCNC[C@H]2COc2ccc3c(c2)OCO3)cc1 [Paroxetine] | 54.1

Identify measured recovery at 2 h, 2 µM corresponding to COCCc1ccc(OCC(O)CNC(C)C)cc1 (stereo not drawn) [Metoprolol]
114

Identify measured recovery at 2 h, 2 µM corresponding to CN(Cc1cnc2nc(N)nc(N)c2n1)c1ccc(C(=O)N[C@@H](CCC(=O)O)C(=O)O)cc1 [Methotrexate]
85.8

###

experiment: in vivo; conditions: SD, rat, iv, 1 mg/kg, Kp, Brain
Measure name: Kp

Molecule | Meas value
COc1cccc2c1C(=O)c1c(O)c3c(c(O)c1C2=O)C[C@@](O)(C(=O)CO)C[C@@H]3O[C@H]1C[C@H](N)[C@H](O)[C@H](C)O1 | 0.291

Identify measured Kp corresponding to "CC[C@]1(O)C[C@@H]2CN(CCc3c([nH]c4ccccc34)[C@@](C(=O)OC)(c3cc4c(cc3OC)N(C)[C@H]3[C@@](O)(C(=O)OC)[C@H](OC(C)=O)[C@]5(CC)C=CCN6CC[C@]43[C@@H]65)C2)C1"
0.528

Identify measured Kp corresponding to Cc1cc(=O)n(-c2ccccc2)n1C [Antipyrine]
0.755

Identify measured Kp corresponding to "CCOc1ccc(NC(C)=O)cc1"
0.763

Identify measured Kp corresponding to "CN/C(=N/CCSCc1nc[nH]c1C)NC#N"
0.007

Identify measured Kp corresponding to "CCN(CC)CCNC(=O)c1c(C)[nH]c(/C=C2\C(=O)Nc3ccc(F)cc32)c1C"
0.965

Identify measured Kp corresponding to COc1cc([C@@H]2c3cc4c(cc3[C@@H](O[C@@H]3O[C@@H]5CO[C@@H](C)O[C@H]5[C@H](O)[C@H]3O)[C@H]3COC(=O)[C@H]23)OCO4)cc(OC)c1O [Etoposide]
0.025

###

assay: Bidirectional transport across LLC-PK1 MOCK monolayer (Transwell); details: pig, LLC-PK1, pH 7.4, Papp (A-B), LLC-PK1 MOCK, positive control drugs run with each batch (n = 15), 2 µM;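 further: compound quantified by LC-MS/MS in donor and receiver wells, efflux ratio as B-A over A-B Papp, recovery relative to initial donor amount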
Measure name: Papp A→B at 2 h, 2 µM

Identify measured Papp A→B at 2 h, 2 µM corresponding to COCCc1ccc(OCC(O)CNC(C)C)cc1 (stereo not shown)
> 20 ×10⁻⁶ cm/s

###

assay: LLC-PK1 MOCK/MDR1 monolayer model, results stated for both cell lines jointly; conditions: pig, pH 7.4, Recovery after cell lysate extraction, intracellular drug included
Measure name: recovery at 2 µM

Identify measured recovery at 2 µM corresponding to "COc1ccc2cc1Oc1ccc(cc1)C[C@H]1c3cc(c(OC)cc3CCN1C)Oc1c(OC)c(OC)cc3c1[C@H](C2)N(C)CC3"
> 80%

###

test system: P-gp (human MDR1); experiment: in vitro; conditions: pig, LLC-PK1, pH 7.4;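 further: 2 h incubation at 37 °C, receiver HBSS with 10 mM Hepes plus 1% BSA, LC-MS/MS of donor and receiver, recovery as receiver plus donor amount over initial donor amount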
Attribute: recovery at 2 h, 2 µM
Unit % implied. Number only.

Compound | Experimental target | recovery at 2 h, 2 µM (%)
COc1cc([C@@H]2c3cc4c(cc3[C@@H](O[C@@H]3O[C@@H]5CO[C@@H](C)O[C@H]5[C@H](O)[C@H]3O)[C@H]3COC(=O)[C@H]23)OCO4)cc(OC)c1O [Etoposide] | P-gp (human MDR1) | 100
COCCOC(=O)C1=C(C)NC(C)=C(C(=O)OC(C)C)C1c1cccc([N+](=O)[O-])c1 (stereo not drawn) | P-gp (human MDR1) | 114

Okay, next one:
Identify measured recovery at 2 h, 2 µM corresponding to "Cc1ncc2n1-c1ccc(Cl)cc1C(c1ccccc1F)=NC2"
100

###

Attribute: fraction unbound at 6 h, 5 µM
test: in vitro; details: rat, plasma
Give your answer as a number; write no unit.

Compound | Measure name | Meas value
Cn1c(=O)c2c(ncn2C)n(C)c1=O [Caffeine] | fraction unbound at 6 h, 5 µM | 0.772

Identify measured fraction unbound at 6 h, 5 µM corresponding to Fc1ccc([C@@H]2CCNC[C@H]2COc2ccc3c(c2)OCO3)cc1 [Paroxetine]
0.021

Identify measured fraction unbound at 6 h, 5 µM corresponding to CC(C)(C)NCC(O)c1ccc(O)c(CO)c1 (stereo not drawn) [Salbutamol]
0.78

Identify measured fraction unbound at 6 h, 5 µM corresponding to CCOc1ccc(NC(C)=O)cc1 [Phenacetin]
0.416

Identify measured fraction unbound at 6 h, 5 µM corresponding to CN/C(=N/CCSCc1nc[nH]c1C)NC#N [Cimetidine]
0.722

Identify measured fraction unbound at 6 h, 5 µM corresponding to CCN(CC)CCNC(=O)c1c(C)[nH]c(/C=C2\C(=O)Nc3ccc(F)cc32)c1C [Sunitinib]
0.017

###

assay: in vitro; conditions: rat, brain homogenate
Measure name: fraction unbound at 6 h, 5 µM

Molecule | Measure name | Meas value
COCCOC(=O)C1=C(C)NC(C)=C(C(=O)OC(C)C)C1c1cccc([N+](=O)[O-])c1 (stereo not shown) | fraction unbound at 6 h, 5 µM | < 0.01
CC(C)(C)NCC(O)c1ccc(O)c(CO)c1 (stereo not shown) | fraction unbound at 6 h, 5 µM | 0.315
CCOc1ccc(NC(C)=O)cc1 | fraction unbound at 6 h, 5 µM | 0.419
COc1cccc2c1C(=O)c1c(O)c3c(c(O)c1C2=O)C[C@@](O)(C(=O)CO)C[C@@H]3O[C@H]1C[C@H](N)[C@H](O)[C@H](C)O1 | fraction unbound at 6 h, 5 µM | < 0.01
CCN(CC)CCNC(=O)c1c(C)[nH]c(/C=C2\C(=O)Nc3ccc(F)cc32)c1C | fraction unbound at 6 h, 5 µM | < 0.01
Fc1ccc([C@@H]2CCNC[C@H]2COc2ccc3c(c2)OCO3)cc1 | fraction unbound at 6 h, 5 µM | < 0.01

Okay, next one:
Identify measured fraction unbound at 6 h, 5 µM corresponding to "Cn1c(=O)c2c(ncn2C)n(C)c1=O"
0.719

###

Attribute: recovery at 2 h, 2 µM
test: in vitro; details: pig, LLC-PK1 MOCK cell monolayer (Transwell), pH 7.4
Unit % implied. Number only.

Before answering, review these 4 worked examples.
Molecule | Meas value
CN/C(=N/CCSCc1nc[nH]c1C)NC#N [Cimetidine] | 96.9
Cn1c(=O)c2c(ncn2C)n(C)c1=O [Caffeine] | 121
COc1ccc2[nH]cc(CCNC(C)=O)c2c1 [Melatonin] | 105
CC(C)NCC(O)COc1cccc2ccccc12 (stereo not shown) [Propranolol] | 90.9

Identify measured recovery at 2 h, 2 µM corresponding to CN(C)CCOC(c1ccccc1)c1ccccc1 [Diphenhydramine]
101

Identify measured recovery at 2 h, 2 µM corresponding to CC[C@]1(O)C[C@@H]2CN(CCc3c([nH]c4ccccc34)[C@@](C(=O)OC)(c3cc4c(cc3OC)N(C)[C@H]3[C@@](O)(C(=O)OC)[C@H](OC(C)=O)[C@]5(CC)C=CCN6CC[C@]43[C@@H]65)C2)C1 [Vinblastine]
86.5

Identify measured recovery at 2 h, 2 µM corresponding to C=C[C@H]1C[N@@]2CC[C@H]1C[C@@H]2[C@@H](O)c1ccnc2ccc(OC)cc12 [Quinidine]
99.1
